- Species on record: Rattus norvegicus
- assayText: Open TG-GATES - Regimen: Single
- Type: toxicity, organism-based, Sprague-Dawley
- Set-up: regimen Single, gender Male, age 6 weeks
- cond: in vivo, po, 1000 mg/kg, 24 h, tissue Blood, route gavage, dose level High
As shown below, each of these compounds has a reported RBC value.

- compoundStructure: "Cc1nnc2n1-c1ccc(Cl)cc1C(c1ccccc1Cl)=NC2"
  unitAbbreviation: "x10_4/ul"
  RBC: 669.2
- compoundStructure: "CN/C(=N/CCSCc1nc[nH]c1C)NC#N"
  unitAbbreviation: "x10_4/ul"
  RBC: 616
- compoundStructure: "COC(=O)C1=C(C)NC(C)=C(C(=O)OC)C1c1ccccc1[N+](=O)[O-]"
  unitAbbreviation: "x10_4/ul"
  RBC: 625.8
- compoundStructure: "O=C(OC[C@H]1O[C@@H](OC(=O)c2cc(O)c(O)c(OC(=O)c3cc(O)c(O)c(O)c3)c2)[C@H](OC(=O)c2cc(O)c(O)c(OC(=O)c3cc(O)c(O)c(O)c3)c2)[C@@H](OC(=O)c2cc(O)c(O)c(OC(=O)c3cc(O)c(O)c(O)c3)c2)[C@@H]1OC(=O)c1cc(O)c(O)c(OC(=O)c2cc(O)c(O)c(O)c2)c1)c1cc(O)c(O)c(OC(=O)c2cc(O)c(O)c(O)c2)c1"
  unitAbbreviation: "x10_4/ul"
  RBC: 588.8
- compoundStructure: "CNC(=C[N+](=O)[O-])NCCSCc1ccc(CN(C)C)o1"
  unitAbbreviation: "x10_4/ul"
  RBC: 621.4

* * *

- Species on record: Rattus norvegicus
- assayText: Open TG-GATES - Regimen: Single
- Format: toxicity, organism-based, Sprague-Dawley
- Set-up: regimen Single, gender Male, age 6 weeks
- cond: in vivo, po, 0 mg/kg, 24 h, tissue Plasma, route gavage, dose level Control
As shown below, each of these molecules has a reported ALT value.
assayEndpoint: ALT

- molecule: "CN/C(=N/CCSCc1nc[nH]c1C)NC#N"
  result: "36.8 IU/L"
- molecule: "NC1=NC(=O)C(c2ccccc2)O1 (stereo not drawn)"
  result: "50.4 IU/L"
- molecule: "CCCc1cc(=O)[nH]c(=S)[nH]1"
  result: "46.2 IU/L"

* * *

- Species: Rattus norvegicus
- assayText: Open TG-GATES - Regimen: Daily Repeat
- Assay type: toxicity, organism-based, Sprague-Dawley
- Design: regimen Daily Repeat, gender Male, age 6 weeks
- cond: in vivo, po, 300 mg/kg, […], tissue Blood, route gavage, dose level Middle, time 14 day
As shown below, each of these compounds has a reported RBC value.
assayEndpoint: RBC (x10_4/ul)

- compoundStructure: "CNC(=C[N+](=O)[O-])NCCSCc1ccc(CN(C)C)o1"
  assayEndpoint: "RBC"
  unitAbbreviation: "x10_4/ul"
  recordedNumber: 687.2
- compoundStructure: "CCOc1ccc(NC(C)=O)cc1"
  assayEndpoint: "RBC"
  unitAbbreviation: "x10_4/ul"
  recordedNumber: 696.6
- compoundStructure: "CN/C(=N/CCSCc1nc[nH]c1C)NC#N"
  assayEndpoint: "RBC"
  unitAbbreviation: "x10_4/ul"
  recordedNumber: 709.6
- compoundStructure: "COC(=O)C1=C(C)NC(C)=C(C(=O)OC)C1c1ccccc1[N+](=O)[O-]"
  assayEndpoint: "RBC"
  unitAbbreviation: "x10_4/ul"
  recordedNumber: 719
- compoundStructure: "Cc1nnc2n1-c1ccc(Cl)cc1C(c1ccccc1Cl)=NC2"
  assayEndpoint: "RBC"
  unitAbbreviation: "x10_4/ul"
  recordedNumber: 710
- compoundStructure: "O=C(OC[C@H]1O[C@@H](OC(=O)c2cc(O)c(O)c(OC(=O)c3cc(O)c(O)c(O)c3)c2)[C@H](OC(=O)c2cc(O)c(O)c(OC(=O)c3cc(O)c(O)c(O)c3)c2)[C@@H](OC(=O)c2cc(O)c(O)c(OC(=O)c3cc(O)c(O)c(O)c3)c2)[C@@H]1OC(=O)c1cc(O)c(O)c(OC(=O)c2cc(O)c(O)c(O)c2)c1)c1cc(O)c(O)c(OC(=O)c2cc(O)c(O)c(O)c2)c1"
  assayEndpoint: "RBC"
  unitAbbreviation: "x10_4/ul"
  recordedNumber: 662.6

* * *

- Species on record: Rattus norvegicus
- assayText: Open TG-GATES - Regimen: Daily Repeat
- Assay type: toxicity, organism-based, Sprague-Dawley
- Parameters: regimen Daily Repeat, gender Male, age 6 weeks
- cond: in vivo, po, 300 mg/kg, […], tissue Blood, route gavage, dose level Middle, time 28 day
As shown below, each of these compounds has a reported Ht value.

- compoundStructure: "O=C(OC[C@H]1O[C@@H](OC(=O)c2cc(O)c(O)c(OC(=O)c3cc(O)c(O)c(O)c3)c2)[C@H](OC(=O)c2cc(O)c(O)c(OC(=O)c3cc(O)c(O)c(O)c3)c2)[C@@H](OC(=O)c2cc(O)c(O)c(OC(=O)c3cc(O)c(O)c(O)c3)c2)[C@@H]1OC(=O)c1cc(O)c(O)c(OC(=O)c2cc(O)c(O)c(O)c2)c1)c1cc(O)c(O)c(OC(=O)c2cc(O)c(O)c(O)c2)c1"
  Ht: "45.2%"
- compoundStructure: "COC(=O)C1=C(C)NC(C)=C(C(=O)OC)C1c1ccccc1[N+](=O)[O-]"
  Ht: "41.7%"
- compoundStructure: "CNC(=C[N+](=O)[O-])NCCSCc1ccc(CN(C)C)o1"
  Ht: "43.2%"
- compoundStructure: "Cc1nnc2n1-c1ccc(Cl)cc1C(c1ccccc1Cl)=NC2"
  Ht: "45.6%"
- compoundStructure: "CN/C(=N/CCSCc1nc[nH]c1C)NC#N"
  Ht: "42.1%"
- compoundStructure: "CCOc1ccc(NC(C)=O)cc1"
  Ht: "42.5%"

* * *

- Species on record: Rattus norvegicus
- assayText: Open TG-GATES - Regimen: Single
- Type: toxicity, organism-based, Sprague-Dawley
- Design: regimen Single, gender Male, age 6 weeks
- cond: in vivo, po, 100 mg/kg, 24 h, tissue Plasma, route gavage, dose level Low
As shown below, each of these molecules has a reported GLC value.

- compoundStructure: "CNC(=C[N+](=O)[O-])NCCSCc1ccc(CN(C)C)o1"
  GLC, mg/dL: 196.6
- compoundStructure: "Cc1nnc2n1-c1ccc(Cl)cc1C(c1ccccc1Cl)=NC2"
  GLC, mg/dL: 183.6
- compoundStructure: "COC(=O)C1=C(C)NC(C)=C(C(=O)OC)C1c1ccccc1[N+](=O)[O-]"
  GLC, mg/dL: 177
- compoundStructure: "CN/C(=N/CCSCc1nc[nH]c1C)NC#N"
  GLC, mg/dL: 199.4
- compoundStructure: "O=C(OC[C@H]1O[C@@H](OC(=O)c2cc(O)c(O)c(OC(=O)c3cc(O)c(O)c(O)c3)c2)[C@H](OC(=O)c2cc(O)c(O)c(OC(=O)c3cc(O)c(O)c(O)c3)c2)[C@@H](OC(=O)c2cc(O)c(O)c(OC(=O)c3cc(O)c(O)c(O)c3)c2)[C@@H]1OC(=O)c1cc(O)c(O)c(OC(=O)c2cc(O)c(O)c(O)c2)c1)c1cc(O)c(O)c(OC(=O)c2cc(O)c(O)c(O)c2)c1"
  GLC, mg/dL: 190.6

* * *

- Species on record: Rattus norvegicus
- assayText: Open TG-GATES - Regimen: Single
- Format: toxicity, organism-based, Sprague-Dawley
- Design: regimen Single, gender Male, age 6 weeks
- cond: in vivo, po, 0 mg/kg, 24 h, tissue Plasma, route gavage, dose level Control

- molecule: "NC1=NC(=O)C(c2ccccc2)O1 (stereo unspecified)"
  Cl (meq/L): 105
- molecule: "CNC(=C[N+](=O)[O-])NCCSCc1ccc(CN(C)C)o1"
  Cl (meq/L): 102.4
- molecule: "CN(C)CCC(c1ccc(Cl)cc1)c1ccccn1 (stereo unspecified)"
  Cl (meq/L): 106.4
- molecule: "Nc1c2c(nc3ccccc13)CCCC2"
  Cl (meq/L): 106.8
- molecule: "Cc1nnc2n1-c1ccc(Cl)cc1C(c1ccccc1Cl)=NC2"
  Cl (meq/L): 105.2
- molecule: "Brc1ccccc1"
  Cl (meq/L): 105.2

* * *

As shown below, each of these compounds has a reported BUN value.
- Species on record: Rattus norvegicus
- assayText: Open TG-GATES - Regimen: Single
- Type: toxicity, organism-based, Sprague-Dawley
- Set-up: regimen Single, gender Male, age 6 weeks
- cond: in vivo, po, 100 mg/kg, 9 h, tissue Plasma, route gavage, dose level Low

- compound: "COC(=O)C1=C(C)NC(C)=C(C(=O)OC)C1c1ccccc1[N+](=O)[O-] [NIFEDIPINE]"
  BUN [mg/dL]: 17.8
- compound: "CN/C(=N/CCSCc1nc[nH]c1C)NC#N [CIMETIDINE]"
  BUN [mg/dL]: 11.6
- compound: "O=C(OC[C@H]1O[C@@H](OC(=O)c2cc(O)c(O)c(OC(=O)c3cc(O)c(O)c(O)c3)c2)[C@H](OC(=O)c2cc(O)c(O)c(OC(=O)c3cc(O)c(O)c(O)c3)c2)[C@@H](OC(=O)c2cc(O)c(O)c(OC(=O)c3cc(O)c(O)c(O)c3)c2)[C@@H]1OC(=O)c1cc(O)c(O)c(OC(=O)c2cc(O)c(O)c(O)c2)c1)c1cc(O)c(O)c(OC(=O)c2cc(O)c(O)c(O)c2)c1 [TANNIC ACID]"
  BUN [mg/dL]: 12.6
- compound: "Cc1nnc2n1-c1ccc(Cl)cc1C(c1ccccc1Cl)=NC2 [TRIAZOLAM]"
  BUN [mg/dL]: 8.4
- compound: "CNC(=C[N+](=O)[O-])NCCSCc1ccc(CN(C)C)o1 [RANITIDINE]"
  BUN [mg/dL]: 10
